Biological target: SARS-COV-2 spike, Wuhan (original) (SARS-COV-2, UniProt P0DTC2 14-1273)
Test: cell-based or functional assay
Criterion: EC50, neutralization of spike pseudotyped virus strictly under 60 nM. Met: t. Not met: f.

DP4F2 Nb-huFc (Fc fusion) EVQLQASGGGFVQPGGSLRLSCAASGTTYSERVMGWFRQAPGKEREFVSAISSGQSDQTYYYADSVKGRFTISRDNSKNTVYLQMNSLRAEDTATYYCAPFAGDANLPREWYWGQGTQVTVSSA
f
BP1B1 Nb-huFc (Fc fusion) EVQLQASGGGFVQPGGSLRLSCAASGRTFSGYIMGWFRQAPGKEREFVSAISQGDSYASYYADSVKGRFTISRDNSKNTVYLQMNSLRAEDTATYYCALYDINTVPYYWGQGTQVTVSS
t
KP1B5 Nb-huFc (Fc fusion) EVQLQASGGGFVQPGGSLRLSCAASGFTFDWSAMGWFRQAPGKEREFVSAISSSTSESTTYADSVKGRFTISRDNSKNTVYLQMNSLRAEDTATYYCATYYGGKTVEQDFYWGQGTQVTVSS
f
KP1C9 Nb-huFc (Fc fusion) EVQLQASGGGFVQPGGSLRLSCAASGRTFDAYSMGWFRQAPGKEREFVSAISSWSDDWTAYADSVKGRFTISRDNSKNTVYLQMNSLRAEDTATYYCALQNTKEDRLYWGQGTQVTVSS
t

Shift focus to the following entry.
Is the reported EC50, neutralization of spike pseudotyped virus for KP2C6 Nb-huFc (Fc fusion) EVQLQASGGGFVQPGGSLRLSCAASGRTFTSFHMGWFRQAPGKEREFVSAISSGDDGTQYYADSVKGRFTISRDNSKNTVYLQMNSLRAEDTATYYCAAYTTTTVPQYWGQGTQVTVSS strictly below 60 nM?
f
